In this section, each of the compounds is paired with its reported relative viability.
Test system: UMC-11
measurementProtocol: relative viability (nuclei count vs DMSO), 5 days (fraction); higher = more cells survive
experimentalParameters: first compound 0.01581 µM
observationType: relative viability

* CC1(C)CCC(c2ccc(Cl)cc2)=C(CN2CCN(c3ccc(C(=O)NS(=O)(=O)c4ccc(N[C@H](CCN5CCOCC5)CSc5ccccc5)c(S(=O)(=O)C(F)(F)F)c4)cc3)CC2)C1 [Navitoclax] + Cc1nc(NC(=O)N2CCC[C@H]2C(N)=O)sc1-c1ccnc(C(C)(C)C(F)(F)F)c1 [Alpelisib] (partner 2 µM) | 1.02
* CC1(C)CCC(c2ccc(Cl)cc2)=C(CN2CCN(c3ccc(C(=O)NS(=O)(=O)c4ccc(N[C@H](CCN5CCOCC5)CSc5ccccc5)c(S(=O)(=O)C(F)(F)F)c4)cc3)CC2)C1 [Navitoclax] + O=C(CCCCCCC(=O)Nc1ccccc1)NO [Vorinostat] (partner 1 µM) | 0.371
* CC1(C)CCC(c2ccc(Cl)cc2)=C(CN2CCN(c3ccc(C(=O)NS(=O)(=O)c4ccc(N[C@H](CCN5CCOCC5)CSc5ccccc5)c(S(=O)(=O)C(F)(F)F)c4)cc3)CC2)C1 [Navitoclax] + CC(=O)c1c(C)c2cnc(Nc3ccc(N4CCNCC4)cn3)nc2n(C2CCCC2)c1=O [Palbociclib] (partner 0.5 µM) | 0.305
* CC1(C)CCC(c2ccc(Cl)cc2)=C(CN2CCN(c3ccc(C(=O)NS(=O)(=O)c4ccc(N[C@H](CCN5CCOCC5)CSc5ccccc5)c(S(=O)(=O)C(F)(F)F)c4)cc3)CC2)C1 [Navitoclax] + COc1cc2c(Oc3ccc(NC(=O)C4(C(=O)Nc5ccc(F)cc5)CC4)cc3F)ccnc2cc1OCCCN1CCOCC1 [Foretinib] (partner 0.25 µM) | 1.14

====

System: HOP-62
measurementProtocol: relative viability (nuclei count vs DMSO), 5 days (fraction); higher = more cells survive
experimentalParameters: first compound 1.265 µM
This listing pairs molecules with measured relative viability.
observationType: relative viability

- O=C(O)c1ccc(-c2c[nH]c3ncc(-c4ccccc4)cc23)cc1C1CCCC1 + O=C(c1cc(Cc2n[nH]c(=O)c3ccccc23)ccc1F)N1CCN(C(=O)C2CC2)CC1 [Olaparib] (partner 8 µM): 0.382
- O=C(O)c1ccc(-c2c[nH]c3ncc(-c4ccccc4)cc23)cc1C1CCCC1 + CC(C)C[C@H](NC(=O)[C@H](Cc1ccccc1)NC(=O)c1cnccn1)B(O)O [Bortezomib] (partner 0.002 µM): 0.886
- O=C(O)c1ccc(-c2c[nH]c3ncc(-c4ccccc4)cc23)cc1C1CCCC1 + COc1cccc2cc(-c3nc([C@H]4CC[C@H](C(=O)O)CC4)n4ncnc(N)c34)[nH]c12 [OSI-027] (partner 0.5 µM): 0.805
- O=C(O)c1ccc(-c2c[nH]c3ncc(-c4ccccc4)cc23)cc1C1CCCC1 + O=C(CCCCCCC(=O)Nc1ccccc1)NO [Vorinostat] (partner 1 µM): 0.48
- O=C(O)c1ccc(-c2c[nH]c3ncc(-c4ccccc4)cc23)cc1C1CCCC1 + Cc1nc(Nc2ncc(C(=O)Nc3c(C)cccc3Cl)s2)cc(N2CCN(CCO)CC2)n1 [Dasatinib] (partner 0.075 µM): 0.666
- O=C(O)c1ccc(-c2c[nH]c3ncc(-c4ccccc4)cc23)cc1C1CCCC1 + CS(=O)(=O)N1CCN(Cc2cc3nc(-c4cccc5[nH]ncc45)nc(N4CCOCC4)c3s2)CC1 [Pictilisib] (partner 1 µM): 0.66
